Tested on: UACC-62 melanoma
experiment: NCI-60 one-dose screen, 48 h (100 = growth as untreated, 0 = no growth, -100 = all killed)
particulars: 10 µM unless noted
The panel holds about 83,000 compounds, 20% with a hit somewhere; the sample as a whole holds those more often.

compound	unit	growth
O=C1/C(=C/c2cccc(O)c2)COc2ccc(O)cc21	%	82.4
COc1cccc2c1C=C1CCCCC3=Cc4c(OC)cccc4OC13O2	%	24.2
COc1ccc(-c2nsc3c2NC(=O)CC3c2cccc(OC)c2)cc1 (centres undefined)	%	41.5
CCN1C(=O)N(c2ccccc2)C2NN=c3s/c(=C4\C(=O)N(C(C)C)c5ccccc54)c(=O)n3C21 (centres undefined)	%	37.6
COc1ccc(Br)c(/C=C2\SC(=Nc3ccc(O)cc3)NC2=O)c1	%	89.5
O=c1c2cc(F)ccc2sc2c(Nc3ccncc3)nc3ccccc3c12	%	66.7
COc1ccc2sc(N(Cc3cccnc3)C(=O)c3ccc(C#N)cc3)nc2c1	%	86.9
CC[C@]1(O)C[C@@H]2CN(CCc3c([nH]c4ccccc34)[C@@](C(=O)OC)(c3cc4c(cc3OC)N(C)[C@H]3[C@@](O)(C(=O)OC)[C@H](OC(=O)CCCBr)[C@]5(CC)C=CCN6CC[C@]43[C@@H]65)C2)C1	%	34.8
CCOC(=O)c1cc2c(n1Cc1cc(OC)c(OC)c(OC)c1)-c1oncc1CCC2	%	25.5

----------
System: IGROV1 ovarian
experiment: NCI-60 one-dose screen, 48 h (100 = growth as untreated, 0 = no growth, -100 = all killed)
particulars: 10 µM unless noted
This is part of a sample that, as a whole, favours compounds with a hit. Of some 83,000 tested, about 20% had one in any assay.
readoutLabel: growth (%)

                             smilesnotation  readoutlabel  experimentalresult
0  COc1ccc(-c2nc(-c3ccccn3)c(-c3ccccn3)n2CC(C)C)cc1OC1CCCC1        growth                19.6
1  CC1=C(CC(=O)c2cccc([N+](=O)[O-])c2)C(=O)c2ccccc2C1=O        growth               -61.1
2  CCOc1ccc(-c2nonc2NC(=O)c2cccc(C)c2)cc1OCC        growth                68.3
3   O=C1/C(=C/c2ccc(O)cc2)COc2ccc(O)c(O)c21        growth                8.79
4    O=c1oc2ccc(Br)cc2c(=O)n1-c1ccc(Br)cc1F        growth                9.59

----------
System: SW-620 colon
experiment: NCI-60 one-dose screen, 48 h (100 = growth as untreated, 0 = no growth, -100 = all killed)
particulars: 10 µM unless noted
The panel holds about 83,000 compounds, 20% with a hit somewhere; the sample as a whole holds those more often. The source made the active and inactive calls. The calls were made as follows: active = growth percent below 10; inactive = the rest.
readoutLabel: growth

>>> df
                                   compound  readoutlabel  experimentalresult
0  COc1cc(C2C(C#N)=C(N)OC3=C2C(=O)c2ccccc2C3=O)cc(OC)c1O (stereo not given)        growth    13.4% (inactive)
1  CCCCN1CCN(c2ccc3nc(-c4ccc5nc(-c6ccc(OCC)cc6)[nH]c5c4)[nH]c3c2)CC1        growth      8.61% (active)
2   COc1ccc(-c2cn[nH]c2-c2ccc(OC)c(O)c2)cc1        growth      38% (inactive)
3  CCN(CCO)CCNc1ccc(C)c2sc3cc(Cl)ccc3c(=O)c12        growth       -85% (active)
4  COc1cc(C2CC(c3ccc(Nc4nc(NCCO)nc(N5CCOCC5)n4)cc3)=NN2c2cc(Cl)cc(Cl)c2)cc(OC)c1OC (stereo not given)        growth    81.6% (inactive)

Data origin, for the record: PubChem BioAssay (NCI)
